Target: KMT9 (Homo sapiens, UniProt Q9Y5N5)
Sequence (Q9Y5N5 1-214): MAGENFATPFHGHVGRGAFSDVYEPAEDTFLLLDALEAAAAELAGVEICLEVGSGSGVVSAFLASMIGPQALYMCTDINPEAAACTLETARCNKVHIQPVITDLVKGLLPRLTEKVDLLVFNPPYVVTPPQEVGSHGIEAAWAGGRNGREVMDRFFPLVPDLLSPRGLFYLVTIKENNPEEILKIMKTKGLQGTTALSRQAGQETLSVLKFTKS
Sequence (Q9UI30 1-125 partner): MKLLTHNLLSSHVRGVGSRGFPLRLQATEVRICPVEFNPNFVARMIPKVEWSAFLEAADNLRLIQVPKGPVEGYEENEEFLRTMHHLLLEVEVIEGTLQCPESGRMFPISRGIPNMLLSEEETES
Experiment: Thermal shift assay (SyproOrange)
Format: binding
Conditions: read-out: ΔTm
Listed here: items and their measured ΔTm at 500 µM.
Note: unit °C is implicit; provide only the numeric part.

What value of measured ΔTm at 500 µM is listed for C[C@@H](CN(CCCN)C[C@H]1O[C@@H](n2cnc3c(N)ncnc32)[C@H](O)[C@@H]1O)N1CCC(O)CC1 [compound 4e] ?
2.78

What value of measured ΔTm at 500 µM is listed for Nc1ncnc2c1ncn2[C@@H]1O[C@H](CN(CC[C@H](N)C(=O)O)CC[C@H](N)c2ccccc2)[C@@H](O)[C@H]1O [compound 2a] ?
10.6

What value of measured ΔTm at 500 µM is listed for Nc1ncnc2c1ncn2[C@@H]1O[C@H](CN(CCCNCCCc2ccccc2)CC[C@H](N)C(=O)O)[C@@H](O)[C@H]1O [compound 5c] ?
21.3
